Value source: paper PMC5869772

I'd appreciate it if you could supply binding signal values for the items below.
subjectOfTest: BATF;JUNB (human;human, UniProt Q16520;P17275 1-125;148-347, |)
Sequence 1: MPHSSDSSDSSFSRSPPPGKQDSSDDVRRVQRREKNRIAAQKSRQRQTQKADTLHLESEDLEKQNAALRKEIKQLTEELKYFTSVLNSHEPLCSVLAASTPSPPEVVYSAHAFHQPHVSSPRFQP
Sequence 2: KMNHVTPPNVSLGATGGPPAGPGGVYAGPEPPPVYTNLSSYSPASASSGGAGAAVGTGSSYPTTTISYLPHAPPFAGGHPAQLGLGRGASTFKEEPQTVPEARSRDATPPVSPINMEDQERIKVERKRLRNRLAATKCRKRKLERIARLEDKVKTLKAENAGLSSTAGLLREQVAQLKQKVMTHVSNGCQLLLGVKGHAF
testMethodNotes: Spec-seq (EMSA and sequencing of bound and unbound bands); 100 nM BATFx-JUNB, 1 uM dsDNA library, 50 mM K acetate, 20 mM Tris-acetate, 10 mM Mg acetate, 100 ug/ml BSA, pH 7.9, 10% glycerol, 30 min on ice; native 9% PAGE at 4 C; low values mean tight binding
testContext: protein: recombinant;recombinant; tags: N-terminal mCherry-TEV, cleaved off;C-terminal 6His; copies: 1;1; dsDNA, one strand shown
Express the result in kT but write the number alone.

Look up binding signal with BATF;JUNB (human;human, UniProt Q16520;P17275 1-125;148-347, |) for this sequence: `GATAGTCTCATTTTCACCCCGTGAAATGAGTCTTTTGTTCCATTACAGTATCTGT`
0.0504

Look up binding signal with BATF;JUNB (human;human, UniProt Q16520;P17275 1-125;148-347, |) for this sequence: `GATAGTCTCATTTTCACCCCGTGAAATGAGTCGCTTGTTCCATTACAGTATCTGT`
0.025

Look up binding signal with BATF;JUNB (human;human, UniProt Q16520;P17275 1-125;148-347, |) for this sequence: `GATAGTCTCATTTTCACCCCGTGAAATGGCTCATTTGTTCCATTACAGTATCTGT`
0.393

Look up binding signal with BATF;JUNB (human;human, UniProt Q16520;P17275 1-125;148-347, |) for this sequence: `GATAGTCTCATTTTCACCCCGTGAAAGTGGGTCATTGTTCCATTACAGTATCTGT`
0.393

Look up binding signal with BATF;JUNB (human;human, UniProt Q16520;P17275 1-125;148-347, |) for this sequence: `GATAGTCTCATTTTCACCCCGTGAAAGAGAGTCATTGTTCCATTACAGTATCTGT`
-0.0937

Look up binding signal with BATF;JUNB (human;human, UniProt Q16520;P17275 1-125;148-347, |) for this sequence: `GATAGTCTCATTTTCACCCCGTGAAATGATGTCATTGTTCCATTACAGTATCTGT`
-0.738

Look up binding signal with BATF;JUNB (human;human, UniProt Q16520;P17275 1-125;148-347, |) for this sequence: `GATAGTCTCATTTTCACCCCGTGAAATGAGTCATTTGTTCCATTACAGTATCTGT`
-1.06

Look up binding signal with BATF;JUNB (human;human, UniProt Q16520;P17275 1-125;148-347, |) for this sequence: `GATAGTCTCATTTTCACCCCGTGAAATGAGTTAATTGTTCCATTACAGTATCTGT`
0.138

Look up binding signal with BATF;JUNB (human;human, UniProt Q16520;P17275 1-125;148-347, |) for this sequence: `GATAGTCTCATTTTCACCCCGTGAAAAGGAGTCATTGTTCCATTACAGTATCTGT`
-0.134

Look up binding signal with BATF;JUNB (human;human, UniProt Q16520;P17275 1-125;148-347, |) for this sequence: `GATAGTCTCATTTTCACCCCGTGAAATTAGTCATTTGTTCCATTACAGTATCTGT`
-0.885

Look up binding signal with BATF;JUNB (human;human, UniProt Q16520;P17275 1-125;148-347, |) for this sequence: `GATAGTCTCATTTTCACCCCGTGAAATGACTCACTTGTTCCATTACAGTATCTGT`
-0.778

Look up binding signal with BATF;JUNB (human;human, UniProt Q16520;P17275 1-125;148-347, |) for this sequence: `GATAGTCTCATTTTCACCCCGTGAAATGAGCCAGTTGTTCCATTACAGTATCTGT`
0.487

Look up binding signal with BATF;JUNB (human;human, UniProt Q16520;P17275 1-125;148-347, |) for this sequence: `GATAGTCTCATTTTCACCCCGTGAAATGAAGTCATTGTTCCATTACAGTATCTGT`
-0.461

Look up binding signal with BATF;JUNB (human;human, UniProt Q16520;P17275 1-125;148-347, |) for this sequence: `GATAGTCTCATTTTCACCCCGTGAAACTTAGTCATTGTTCCATTACAGTATCTGT`
-0.834

Look up binding signal with BATF;JUNB (human;human, UniProt Q16520;P17275 1-125;148-347, |) for this sequence: `GATAGTCTCATTTTCACCCCGTGAAATGACTCCATTGTTCCATTACAGTATCTGT`
-0.151

Look up binding signal with BATF;JUNB (human;human, UniProt Q16520;P17275 1-125;148-347, |) for this sequence: `GATAGTCTCATTTTCACCCCGTGAAATGACGTGATTGTTCCATTACAGTATCTGT`
-0.588

Look up binding signal with BATF;JUNB (human;human, UniProt Q16520;P17275 1-125;148-347, |) for this sequence: `GATAGTCTCATTTTCACCCCGTGAAATGAGACAGTTGTTCCATTACAGTATCTGT`
0.654

Look up binding signal with BATF;JUNB (human;human, UniProt Q16520;P17275 1-125;148-347, |) for this sequence: `GATAGTCTCATTTTCACCCCGTGAAATGACATCATTGTTCCATTACAGTATCTGT`
-0.531

Look up binding signal with BATF;JUNB (human;human, UniProt Q16520;P17275 1-125;148-347, |) for this sequence: `GATAGTCTCATTTTCACCCCGTGAAATGACTCAATTGTTCCATTACAGTATCTGT`
-0.531

Look up binding signal with BATF;JUNB (human;human, UniProt Q16520;P17275 1-125;148-347, |) for this sequence: `GATAGTCTCATTTTCACCCCGTGAAATGAGTAACTTGTTCCATTACAGTATCTGT`
-0.237

Look up binding signal with BATF;JUNB (human;human, UniProt Q16520;P17275 1-125;148-347, |) for this sequence: `GATAGTCTCATTTTCACCCCGTGAAAATAAGTCATTGTTCCATTACAGTATCTGT`
-0.448
